# Tested on: LINE1 reverse transcriptase (Homo sapiens, UniProt O00370)
# Sequence (O00370 whole entry, looked up): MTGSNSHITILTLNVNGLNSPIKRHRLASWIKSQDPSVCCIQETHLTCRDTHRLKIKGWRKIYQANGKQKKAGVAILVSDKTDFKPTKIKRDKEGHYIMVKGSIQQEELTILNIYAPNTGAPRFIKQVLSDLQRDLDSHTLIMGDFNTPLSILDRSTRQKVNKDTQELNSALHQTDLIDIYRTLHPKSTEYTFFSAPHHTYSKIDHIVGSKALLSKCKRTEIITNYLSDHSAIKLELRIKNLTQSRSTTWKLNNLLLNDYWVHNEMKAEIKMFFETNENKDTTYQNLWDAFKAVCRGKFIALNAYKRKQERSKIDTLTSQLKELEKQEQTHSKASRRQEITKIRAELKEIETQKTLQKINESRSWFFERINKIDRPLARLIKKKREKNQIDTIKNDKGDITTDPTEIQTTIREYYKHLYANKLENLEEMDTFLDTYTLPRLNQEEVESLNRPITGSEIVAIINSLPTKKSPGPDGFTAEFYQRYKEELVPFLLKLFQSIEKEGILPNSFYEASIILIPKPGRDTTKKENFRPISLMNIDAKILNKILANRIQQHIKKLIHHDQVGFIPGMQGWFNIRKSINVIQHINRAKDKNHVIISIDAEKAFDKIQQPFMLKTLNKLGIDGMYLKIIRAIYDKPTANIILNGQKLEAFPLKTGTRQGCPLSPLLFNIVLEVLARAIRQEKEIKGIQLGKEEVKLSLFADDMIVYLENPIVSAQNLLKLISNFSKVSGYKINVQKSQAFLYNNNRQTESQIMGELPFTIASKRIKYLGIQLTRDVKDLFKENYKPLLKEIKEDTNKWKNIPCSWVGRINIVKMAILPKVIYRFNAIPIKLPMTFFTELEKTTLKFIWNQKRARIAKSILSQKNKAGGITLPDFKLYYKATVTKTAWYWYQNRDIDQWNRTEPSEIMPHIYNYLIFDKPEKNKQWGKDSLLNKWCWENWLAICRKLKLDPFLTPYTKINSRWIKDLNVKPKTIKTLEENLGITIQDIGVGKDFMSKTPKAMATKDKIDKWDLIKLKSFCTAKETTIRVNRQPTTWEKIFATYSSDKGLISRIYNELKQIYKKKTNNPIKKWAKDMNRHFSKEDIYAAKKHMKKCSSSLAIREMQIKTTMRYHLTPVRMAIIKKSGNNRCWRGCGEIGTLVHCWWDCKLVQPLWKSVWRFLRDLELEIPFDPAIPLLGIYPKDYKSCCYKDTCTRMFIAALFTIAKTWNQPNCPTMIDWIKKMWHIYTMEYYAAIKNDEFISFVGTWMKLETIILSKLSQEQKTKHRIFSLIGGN
# Experimental details: Stable artificial-intron Cis LINE1 reporter assay
# Assay type: cell-based
# Set-up: host or cells: HeLa Tet-On 3G
# Run parameters: stable HeLa Tet-On 3G L1 reporter cells, doxycycline 500 ng/mL, 72 h; Firefly Luciferase activity
# Procedure: Exemplary compounds were tested for ability to inhibit LINE1 reverse transcriptase using a stable artificial-intron Cis LINE1 reporter assay. Assay procedures and results are described below. […] Test compounds were serially diluted in DMSO and spotted in 96-well plates. […] Luminescence was measured 72 h after plating using the Dual-Glo Luciferase Assay System (Promega cat no E2940) following the manufacturer's instructions. […]
pIC50: −log10 of the molar value.
Quantity measured: pIC50

[[record]]
compound = "C#C[C@@]1(CO[P@@](=O)(N[C@@H](C)C(=O)OCC(CC)CC)Oc2ccccc2)C=C[C@H](n2cc(C)c(=O)[nH]c2=O)O1"
result = "6.30 to 7.30"


GET /values?readout=pIC50&item= C#C[C@@]1(COP(=O)(N[C@@H](C)C(=O)OCc2ccccc2)Oc2ccccc2)C=C[C@H](n2cc(C)c(=O)[nH]c2=O)O1 (mixture of isomers)
6.30 to 7.30

Another compound: C#C[C@@]1(CO)C=C[C@H](n2cc(C)c(=O)[nH]c2=O)O1
6.30 to 7.30

Proceed to C#C[C@@]1(CO[P@@](=O)(N[C@@H](C)C(=O)OC(C)C)Oc2ccccc2)C=C[C@H](n2cc(C)c(=O)[nH]c2=O)O1
< 6.30

###

# Tested on: UniProt O00370
# Experimental details: Transient artificial-intron Cis LINE1 reporter assay
# Format: cell-based
# Run parameters: HEK 293 cells, transient transfection; ratio FLuc/RLuc reports LINE1 activity
# Description: The following compound (hereinafter “Test Compound”) was tested for ability to inhibit LINE1 reverse transcriptase using a transient artificial-intron Cis LINE1 reporter assay: Additional exemplary compounds were also tested for ability to inhibit LINE1 reverse transcriptase using a transient artificial-intron Cis LINE1 reporter assay. […] Luminescence was measured using the Dual-Glo Luciferase Assay System (Promega) following the manufacturer's instructions. […]
Quantity measured: IC50

Study these solved cases before continuing.
[[record]]
compound = "C#C[C@@]1(CO[P@@](=O)(N[C@@H](C)C(=O)OCC(CC)CC)Oc2ccccc2)C=C[C@H](n2cc(C)c(=O)[nH]c2=O)O1 [Compound I-6]"
result = "50 to 500 nM"

[[record]]
compound = "C#C[C@@]1(COP(=O)(N[C@@H](C)C(=O)OCC(C)(C)C)Oc2cccc3ccccc23)C=C[C@H](n2cc(C)c(=O)[nH]c2=O)O1 (single isomer, unassigned) [P-Diastereomer 2 from Example 2; I-16 or III-1]"
result = "≤ 50 nM"

[[record]]
compound = "C#C[C@@]1(COP(=O)(NCc2ccccc2)OCCSC(=O)C(C)(C)CO)C=C[C@H](n2cc(C)c(=O)[nH]c2=O)O1 (single isomer, unassigned) [P-Diastereomer 2 from Example 3; II-1 or II-2]"
result = "50 to 500 nM"

[[record]]
compound = "C#C[C@@]1(CO[P@@](=O)(N[C@@H](C)C(=O)OC(C)C)Oc2ccccc2)C=C[C@H](n2cc(C)c(=O)[nH]c2=O)O1 [Compound I-2]"
result = "50 to 500 nM"


Which IC50 is listed for C#C[C@@]1(CO[P@](=O)(N[C@@H](C)C(=O)OC(C)C)Oc2ccccc2)C=C[C@H](n2cc(C)c(=O)[nH]c2=O)O1 [Compound I-1] ?
50 to 500 nM

###

# Tested on: LINE1 reverse transcriptase (Homo sapiens, UniProt O00370)
# Experimental details: Stable artificial-intron Cis LINE1 reporter assay
# Assay type: cell-based
# Design: host or cells: HeLa Tet-On 3G
# Run parameters: stable HeLa Tet-On 3G L1 reporter cells, doxycycline 500 ng/mL, 72 h; Firefly Luciferase activity
IC50 by entry:

[[record]]
molecule = "C#C[C@@]1(COP(=O)(NCc2ccccc2)OCCSC(=O)C(C)(C)CO)C=C[C@H](n2cc(C)c(=O)[nH]c2=O)O1 (single isomer, unassigned) [P-Diastereomer 1 from Example 3; II-1 or II-2]"
quantity_measured = "IC50"
result = "50 to 500 nM"

[[record]]
molecule = "C#C[C@@]1(COP(=O)(NC(C)(C)C(=O)OC(C)C)Oc2ccccc2)C=C[C@H](n2cc(C)c(=O)[nH]c2=O)O1 (single isomer, unassigned) [P-Diastereomer 2 from Example 2; II-22 or II-23]"
quantity_measured = "IC50"
result = "> 500 nM"

[[record]]
molecule = "C#C[C@@]1(CO[P@](=O)(N[C@@H](C)C(=O)OC(C)C)Oc2ccccc2)C=C[C@H](n2cc(C)c(=O)[nH]c2=O)O1"
quantity_measured = "IC50"
result = "> 500 nM"

[[record]]
molecule = "C#C[C@@]1(COP(=O)(N[C@@H](C)C(=O)OC)Oc2ccccc2)C=C[C@H](n2cc(C)c(=O)[nH]c2=O)O1 (mixture of isomers)"
quantity_measured = "IC50"
result = "> 500 nM"

[[record]]
molecule = "C#C[C@@]1(COP(=O)(OCOC(=O)OC(C)C)OCOC(=O)OC(C)C)C=C[C@H](n2cc(C)c(=O)[nH]c2=O)O1"
quantity_measured = "IC50"
result = "≤ 50 nM"

[[record]]
molecule = "C#C[C@@]1(CO[P@](=O)(N[C@@H](C)C(=O)OCC(CC)CC)Oc2ccccc2)C=C[C@H](n2cc(C)c(=O)[nH]c2=O)O1"
quantity_measured = "IC50"
result = "50 to 500 nM"


Name the reported IC50 value associated with the molecule C#C[C@@]1(COP(=O)(N[C@@H](C)C(=O)OCC(C)(C)C)Oc2cccc3ccccc23)C=C[C@H](n2cc(C)c(=O)[nH]c2=O)O1 (single isomer, unassigned) [P-Diastereomer 1 from Example 2; I-16 or III-1]
50 to 500 nM

Same for C#C[C@@]1(COP(=O)(NC(C)(C)C(=O)OC(C)C)Oc2ccccc2)C=C[C@H](n2cc(C)c(=O)[nH]c2=O)O1 (single isomer, unassigned) [P-Diastereomer 1 from Example 2; II-22 or II-23]
> 500 nM

And what about the molecule C#C[C@@]1(COP(=O)(N[C@@H](C)C(=O)OCC(C)(C)C)Oc2cccc3ccccc23)C=C[C@H](n2cc(C)c(=O)[nH]c2=O)O1 (single isomer, unassigned) [P-Diastereomer 2 from Example 2; I-16 or III-1] ?
50 to 500 nM

Param item: C#C[C@@]1(COP(=O)(N[C@@H](C)C(=O)OC)Oc2ccc(Br)cc2)C=C[C@H](n2cc(C)c(=O)[nH]c2=O)O1 (single isomer, unassigned) [P-Diastereomer 1 from Example 2; I-7 or I-8]
50 to 500 nM
